Molecular target: T1, endothelial protein C receptor (EPCR), extracellular domain, biotinylated on the N-terminal BAP tag (human, UniProt Q9UNN8 18-210, biotin attached to the N-terminal BAP tag (BirA))
T1 construct: also called biotinylated recombinant EPCR; ECPR
T1 sequence: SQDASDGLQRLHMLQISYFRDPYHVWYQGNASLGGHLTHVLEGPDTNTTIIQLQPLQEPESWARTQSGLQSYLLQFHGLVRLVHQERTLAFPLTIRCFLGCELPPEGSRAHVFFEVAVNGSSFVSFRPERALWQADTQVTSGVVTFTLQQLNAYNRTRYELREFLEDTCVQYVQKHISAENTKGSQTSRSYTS
Test: SPR
Conditions: both partners purified
measurementName: kon (M⁻¹ s⁻¹)

{"binder": "CIDRα1.1 domain of PfEMP1 RAJ116var08 (domain or fragment, also called CIDRa1.1 RAJ116var08_RAJ116; RAJ116var08 (1.1)) PDCVVDCTGGNCKENKKHDNCRSKIIEEILRSEETTDIDVLYSGKGPGAITKKLHDFCSNPNNYKRANVQKWKCYNKNKDYNNCEMNISSYKDATDPNVMLSVQCFYSWAQNLLIDIIRWEHQLKDCINNTNVTDCDNECNKNCECFEKWIKQKQKEWQQVKEVLKKKDENSHNYYNKLRSVFDSFLYQVMFALNNEEKGKWDQFTEDLEKKFESSKKSAGTGNSQDAIEFLLDHLNDNAITCKDNNSKESC", "resultValue": 27900}
{"binder": "CIDRα1.1 domain of PfEMP1 IT4var20 (domain or fragment, also called CIDRa1.1 IT4var20_IT4; IT4var20 (1.1)) PDCVVQCKGGKCTEDKKNDKCRSKIIKKILQSEEPTEIHVLNSDDKQGDITKKLEVFCSSTTNYEGRNVQKWKCYNKNSDYNNCEMNISSYKDSTDANVMLSVECFHSWAKNLLIDTIKWEHQLKNCINNTNVTYCESKCIKNCECYEKWIKRKEHEWEKVKNVFGNNNRMSYIYYNNLSRVFDSFLFQVMFALDQDEKGKWDQFTEDLKKKFEPSKTNTPTGKSQDAIEFLLDHLKDNALTCRDNNSNESCDVSKKVKTNPC", "resultValue": 332000}
{"binder": "CIDRα1.4 domain of PfEMP1 DD2var32 (domain or fragment, also called CIDRa1.4 DD2var32_DD2; DD2var32 (1.4)) PDCGVECNKGTCKKKPNDSNCRNNEAYIPPRDVTPTKINVLYSGDGHGDITKKLKGFCSNPTDYDGKNYENWQCYYKSSEDNKCQMTSLSQTLQKHHYVMSFYAFFDFWVRKFLIDTIKWENELKNCINNTTTDCSDGCNKHCVCFDKWVKQKEKEWNSIKKLFTKKNNVPQPYYTNINNLFDSFYFQVMYELNHDEAKWKELTQELRNKINSSKKNTDAADSKDAIELLLEYLKEKSTICKDNNTNEAC", "resultValue": "1.06e+06"}
